- EXPERIMENT_NOTES: Oral bioavailability in rhesus monkey at 1 mg/kg
- Type: ADME, organism-based, Macaca mulatta
- TEST_CONDITIONS: in vivo
REPORTED_METRIC: bioavailability (%)
Unit % implied. Number only.

// NC(=O)c1cnc(-c2cnc3c(Nc4ccc(C(F)(F)F)cn4)ccnc3n2)c(C(F)(F)F)c1 : bioavailability value = 38

---

- EXPERIMENT_NOTES: Cmax in dog at 10 mg/kg, po
- Type: ADME, organism-based, Canis lupus familiaris
- Parameters: dose 10 mg/kg, route oral
- TEST_CONDITIONS: in vivo
REPORTED_METRIC: Cmax (µM)
Express it in µM; write the number only.

Form field Cmax, entry NC(=O)c1cnc(-c2cnc3c(Nc4ccc(C(F)(F)F)cn4)ccnc3n2)c(C(F)(F)F)c1 : 5.2

---

- EXPERIMENT_NOTES: Volume of distribution in dog at 1 mg/kg, iv
- Assay type: ADME, organism-based, Canis lupus familiaris
- Design: dose 1 mg/kg, route intravenous
- TEST_CONDITIONS: in vivo
REPORTED_METRIC: Vd (L/kg)
Lab book: enter the figure in L/kg, no units written.

The recorded Vd for NC(=O)c1cnc(-c2cnc3c(Nc4ccc(C(F)(F)F)cn4)ccnc3n2)c(C(F)(F)F)c1 is 1.3

---

- EXPERIMENT_NOTES: Half life in rhesus monkey at 1 mg/kg, iv
- Format: ADME, organism-based, Macaca mulatta
- Design: dose 1 mg/kg, route intravenous
- TEST_CONDITIONS: in vivo
REPORTED_METRIC: half-life (min)
Unit min implied. Number only.

So for NC(=O)c1cnc(-c2cnc3c(Nc4ccc(C(F)(F)F)cn4)ccnc3n2)c(C(F)(F)F)c1 , the logged half-life turned out to be 264

---

- EXPERIMENT_NOTES: Plasma concentration in rat complete Freund's adjuvant-induced inflammation model at 10 mg/kg, po at 2 hrs on second day
- Type: ADME, organism-based
- Set-up: dose 10 mg/kg, route oral
REPORTED_METRIC: concentration at 2 h (µM)
Please state the figure in µM; there is no need to write the unit.

Documented concentration at 2 h of NC(=O)c1cnc(-c2cnc3c(Nc4ccc(C(F)(F)F)cn4)ccnc3n2)c(C(F)(F)F)c1 : 3.12

---

- Test system: Rattus norvegicus
- EXPERIMENT_NOTES: Plasma concentration in Sprague-Dawley rat carrageenan-induced thermal hyperalgesia model at 1 mg/kg, po
- Format: ADME, organism-based
- Design: dose 1 mg/kg, route oral
- TEST_CONDITIONS: in vivo
concentration listing for selected compounds.
Reply numerically in nM, unit not repeated.

STRUCTURE: FC(F)(F)c1ccc(Nc2ccnc3nc(-c4ncccc4C(F)(F)F)ccc23)nc1
SYSTEM_TESTED: Rattus norvegicus
READOUT_UNITS: nM
concentration: 300

Reported concentration ( NC(=O)c1cnc(-c2cnc3c(Nc4ccc(C(F)(F)F)cn4)ccnc3n2)c(C(F)(F)F)c1 ) = 240

---

- SYSTEM_TESTED: Transient receptor potential cation channel subfamily V member 1 (Homo sapiens)
- Sequence (Q8NER1 whole entry): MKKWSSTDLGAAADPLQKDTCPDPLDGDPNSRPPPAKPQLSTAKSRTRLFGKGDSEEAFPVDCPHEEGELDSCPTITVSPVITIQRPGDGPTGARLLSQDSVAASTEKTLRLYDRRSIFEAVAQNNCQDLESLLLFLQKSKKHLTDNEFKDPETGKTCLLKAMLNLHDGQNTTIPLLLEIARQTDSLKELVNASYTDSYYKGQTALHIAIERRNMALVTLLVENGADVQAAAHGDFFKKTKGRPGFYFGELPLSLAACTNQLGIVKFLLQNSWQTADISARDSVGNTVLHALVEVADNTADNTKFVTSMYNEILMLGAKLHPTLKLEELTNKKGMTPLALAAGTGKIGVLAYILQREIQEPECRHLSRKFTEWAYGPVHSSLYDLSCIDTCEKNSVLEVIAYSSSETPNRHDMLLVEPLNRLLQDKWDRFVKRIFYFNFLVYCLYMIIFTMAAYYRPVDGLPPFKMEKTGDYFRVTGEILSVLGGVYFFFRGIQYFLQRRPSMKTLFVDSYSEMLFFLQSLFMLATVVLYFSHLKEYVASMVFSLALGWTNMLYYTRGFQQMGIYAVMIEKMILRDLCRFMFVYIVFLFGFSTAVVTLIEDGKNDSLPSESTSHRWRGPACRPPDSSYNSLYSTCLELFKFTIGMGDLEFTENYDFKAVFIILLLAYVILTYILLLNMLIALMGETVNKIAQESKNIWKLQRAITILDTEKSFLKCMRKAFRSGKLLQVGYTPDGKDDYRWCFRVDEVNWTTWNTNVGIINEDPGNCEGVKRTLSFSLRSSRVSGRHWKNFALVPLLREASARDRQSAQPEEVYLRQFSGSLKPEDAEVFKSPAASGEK
- EXPERIMENT_NOTES: Antagonist activity at human TRPV1 assessed as inhibition of capsaicin-induced receptor activation by FLIPR assay
pIC50: −log10 of the molar value.
Assign class by pIC50: not lower than 8 means criterion met; lower than 8 means criterion not met.

Below, 3 molecules whose answers are already recorded.
STRUCTURE: O=C(O)c1nc(Nc2ccnc3nc(-c4ncccc4C(F)(F)F)ccc23)ncc1C(F)(F)F
SYSTEM_TESTED: Transient receptor potential cation channel subfamily V member 1 (Homo sapiens)
LABEL_CLASS: criterion not met
//
STRUCTURE: FC(F)(F)c1ccc(Nc2ccnc3nc(-c4ncncc4C(F)(F)F)ccc23)nc1
SYSTEM_TESTED: Transient receptor potential cation channel subfamily V member 1 (Homo sapiens)
LABEL_CLASS: criterion not met
//
STRUCTURE: FC(F)(F)c1ccc(Nc2ccnc3nc(-c4ncc(Br)cc4C(F)(F)F)cnc23)nc1
SYSTEM_TESTED: Transient receptor potential cation channel subfamily V member 1 (Homo sapiens)
LABEL_CLASS: criterion not met

Enquiry: Determine whether measured pIC50 meets or exceeds 8 for NC(=O)c1nc(Nc2ccnc3nc(-c4ncccc4C(F)(F)F)ccc23)ncc1C(F)(F)F
Return: criterion not met

Enquiry: Confirm if pIC50 reported for the molecule O=C(O)c1cnc(-c2cnc3c(Nc4ccc(C(F)(F)F)cn4)ccnc3n2)c(C(F)(F)F)c1 is 8 or above.
Return: criterion not met

Enquiry: Is pIC50 at least 8? Consider FC(F)(F)c1cnc(Nc2ccnc3nc(-c4ncccc4C(F)(F)F)ccc23)cn1
Return: criterion met

Enquiry: # bool: pIC50 of NC(=O)c1cnc(-c2cnc3c(Nc4ccc(C(F)(F)F)cn4)ccnc3n2)c(C(F)(F)F)c1 >= 8
Return: criterion met

Enquiry: Confirm if pIC50 reported for the molecule FC(F)(F)c1ccc(Nc2ccnc3nc(-c4ccncc4C(F)(F)F)ccc23)nc1 is 8 or above.
Return: criterion not met
